Target: T1, 4H171-AA
T1 chain: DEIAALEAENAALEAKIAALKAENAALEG
Experiment: two-hybrid library CCmax;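 note: natural log of median RNA to DNA barcode read ratio; higher means stronger binding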
Conditions: mean of both orientations
metric: interaction score
Numbers only.

Recorded interaction score, per entry:
> print(dat)
                                     binder             metric  value.observed
1  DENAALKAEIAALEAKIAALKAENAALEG [4H1579-AA]  interaction score           -1.67
2  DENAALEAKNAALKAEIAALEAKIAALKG [4H1478-AA]  interaction score             0.9
3  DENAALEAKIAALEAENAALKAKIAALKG [4H1310-AA]  interaction score            -0.8

Answer for every listed entry: what is its interaction score? The entries follow.
1. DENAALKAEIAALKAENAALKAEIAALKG [4H1626-AA]
2. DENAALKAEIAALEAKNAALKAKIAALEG [4H1597-AA]
3. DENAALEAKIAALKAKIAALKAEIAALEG [4H1385-AA]

## Output
[-1.66, -0.742, -0.131]

## Input Would you kindly share the measured interaction score for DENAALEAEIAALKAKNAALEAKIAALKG [4H1142-AA] ?
## Output -1.36

Taken from paper PMC10397247.
